TEST_SYSTEM: Sodium-dependent dopamine transporter (Homo sapiens)
Sequence (Q01959 whole entry): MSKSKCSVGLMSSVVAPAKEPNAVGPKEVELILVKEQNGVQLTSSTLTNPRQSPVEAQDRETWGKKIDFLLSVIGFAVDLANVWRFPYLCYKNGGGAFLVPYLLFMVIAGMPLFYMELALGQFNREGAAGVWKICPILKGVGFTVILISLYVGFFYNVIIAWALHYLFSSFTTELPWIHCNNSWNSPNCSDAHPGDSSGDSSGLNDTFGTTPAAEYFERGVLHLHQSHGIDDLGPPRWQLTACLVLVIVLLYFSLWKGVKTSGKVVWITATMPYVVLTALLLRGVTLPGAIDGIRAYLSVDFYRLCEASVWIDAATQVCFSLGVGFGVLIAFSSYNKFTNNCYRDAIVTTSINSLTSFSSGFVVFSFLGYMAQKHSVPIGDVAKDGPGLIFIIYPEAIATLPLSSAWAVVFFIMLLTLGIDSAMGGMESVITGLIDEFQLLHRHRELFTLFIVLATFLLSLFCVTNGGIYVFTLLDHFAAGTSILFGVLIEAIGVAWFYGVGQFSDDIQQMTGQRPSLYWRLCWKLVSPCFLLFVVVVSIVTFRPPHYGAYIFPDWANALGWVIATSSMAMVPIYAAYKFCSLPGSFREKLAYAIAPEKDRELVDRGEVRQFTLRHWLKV
PROTOCOL_TEXT: Compound was tested for inhibition of [3H]DA binding to dopamine (DAT) transporter in HEK cells
MEASUREMENT_NAME: pIC50
As a rule, pIC50 stands for the negative log10 of the concentration, concentration in M.

Sample answers from the record:
CN1C2CCC1C(C(=O)NCCCCCCCCNC(=O)C1C(c3ccc(Cl)cc3)CC3CCC1N3C)C(c1ccc(Cl)cc1)C2 (stereo not given)    6.06
CN1C2CCC1C(C(=O)NCCCCCCNC(=O)C1C(c3ccc(Cl)cc3)CC3CCC1N3C)C(c1ccc(Cl)cc1)C2 (stereo not given)    5.85
CN1C2CCC1C(C(=O)NCCCNC(=O)C1C(c3ccc(Cl)cc3)CC3CCC1N3C)C(c1ccc(Cl)cc1)C2 (stereo not given)    7.28

Q. Tell me measured pIC50 for CN1C2CCC1C(C(=O)NCCCCNC(=O)C1C(c3ccc(Cl)cc3)CC3CCC1N3C)C(c1ccc(Cl)cc1)C2 (stereo not given) please.
A. 5.78

Q. Supply measured pIC50 of COC(=O)C1C(c2ccc(Cl)cc2)CC2CCC1N2C (stereo not given) in your reply.
A. 8.77

----------
TEST_SYSTEM: Sodium-dependent noradrenaline transporter (Homo sapiens, UniProt P23975)
Sequence (P23975 whole entry): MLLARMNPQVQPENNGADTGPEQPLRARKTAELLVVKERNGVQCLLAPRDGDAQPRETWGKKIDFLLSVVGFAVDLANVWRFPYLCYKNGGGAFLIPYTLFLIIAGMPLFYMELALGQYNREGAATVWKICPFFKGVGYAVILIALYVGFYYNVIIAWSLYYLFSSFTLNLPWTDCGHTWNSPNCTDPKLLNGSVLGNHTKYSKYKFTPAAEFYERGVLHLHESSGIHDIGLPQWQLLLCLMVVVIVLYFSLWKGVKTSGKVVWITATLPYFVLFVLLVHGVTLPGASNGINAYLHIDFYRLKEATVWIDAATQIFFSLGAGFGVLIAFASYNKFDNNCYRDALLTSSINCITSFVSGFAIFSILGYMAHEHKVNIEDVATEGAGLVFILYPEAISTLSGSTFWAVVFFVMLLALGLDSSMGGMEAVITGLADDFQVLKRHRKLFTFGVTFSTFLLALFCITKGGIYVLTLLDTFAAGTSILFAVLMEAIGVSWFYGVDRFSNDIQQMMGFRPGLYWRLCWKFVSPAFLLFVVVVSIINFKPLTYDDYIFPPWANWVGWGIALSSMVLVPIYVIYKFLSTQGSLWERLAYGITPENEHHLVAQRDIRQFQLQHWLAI
PROTOCOL_TEXT: Compound was tested for inhibition of [3H]NE binding to norepinephrine transporter HEK cells
MEASUREMENT_NAME: IC50 (nM)
Please reply with the bare figure in nM and do not write the unit itself.

CN1C2CCC1C(C(=O)NCCCCNC(=O)C1C(c3ccc(Cl)cc3)CC3CCC1N3C)C(c1ccc(Cl)cc1)C2 (centres undefined)    2260
CN1C2CCC1C(C(=O)NCCCNC(=O)C1C(c3ccc(Cl)cc3)CC3CCC1N3C)C(c1ccc(Cl)cc1)C2 (centres undefined)    266
CN1C2CCC1C(C(=O)NCCCCCCCCNC(=O)C1C(c3ccc(Cl)cc3)CC3CCC1N3C)C(c1ccc(Cl)cc1)C2 (centres undefined)    487

Please examine the following record next.
Q. Dear colleague, please send me the reported IC50 for CN1C2CCC1C(C(=O)NCCCCCCNC(=O)C1C(c3ccc(Cl)cc3)CC3CCC1N3C)C(c1ccc(Cl)cc1)C2 (centres undefined) when you can.
A. 1850

----------
Dear all, this message contains Ki results, target or system Sodium-dependent noradrenaline transporter (Homo sapiens).
Value expressed in nM; do not type the unit.

CN1C2CCC1C(C(=O)NCCCNC(=O)C1C(c3ccc(Cl)cc3)CC3CCC1N3C)C(c1ccc(Cl)cc1)C2 (centres undefined)    2970

Q. Output reported Ki of the compound CN1C2CCC1C(C(=O)NCCCCNC(=O)C1C(c3ccc(Cl)cc3)CC3CCC1N3C)C(c1ccc(Cl)cc1)C2 (centres undefined) on Sodium-dependent noradrenaline transporter (Homo sapiens).
A. 2070

Q. Supply Ki measured with Sodium-dependent noradrenaline transporter (Homo sapiens) for CN1C2CCC1C(C(=O)NCCCCCCCCNC(=O)C1C(c3ccc(Cl)cc3)CC3CCC1N3C)C(c1ccc(Cl)cc1)C2 (centres undefined) .
A. 830

Q. Give Ki for CN1C2CCC1C(C(=O)NCCCCCCNC(=O)C1C(c3ccc(Cl)cc3)CC3CCC1N3C)C(c1ccc(Cl)cc1)C2 (centres undefined) tested on Sodium-dependent noradrenaline transporter (Homo sapiens).
A. 330

----------
Each entry below carries its recorded Ratio.
TEST_SYSTEM: Sodium-dependent serotonin transporter (Homo sapiens)
PROTOCOL_TEXT: Ratio of uptake inhibition to binding affinity to human SERT (IC50/Ki)
Sequence (P31645 whole entry, looked up): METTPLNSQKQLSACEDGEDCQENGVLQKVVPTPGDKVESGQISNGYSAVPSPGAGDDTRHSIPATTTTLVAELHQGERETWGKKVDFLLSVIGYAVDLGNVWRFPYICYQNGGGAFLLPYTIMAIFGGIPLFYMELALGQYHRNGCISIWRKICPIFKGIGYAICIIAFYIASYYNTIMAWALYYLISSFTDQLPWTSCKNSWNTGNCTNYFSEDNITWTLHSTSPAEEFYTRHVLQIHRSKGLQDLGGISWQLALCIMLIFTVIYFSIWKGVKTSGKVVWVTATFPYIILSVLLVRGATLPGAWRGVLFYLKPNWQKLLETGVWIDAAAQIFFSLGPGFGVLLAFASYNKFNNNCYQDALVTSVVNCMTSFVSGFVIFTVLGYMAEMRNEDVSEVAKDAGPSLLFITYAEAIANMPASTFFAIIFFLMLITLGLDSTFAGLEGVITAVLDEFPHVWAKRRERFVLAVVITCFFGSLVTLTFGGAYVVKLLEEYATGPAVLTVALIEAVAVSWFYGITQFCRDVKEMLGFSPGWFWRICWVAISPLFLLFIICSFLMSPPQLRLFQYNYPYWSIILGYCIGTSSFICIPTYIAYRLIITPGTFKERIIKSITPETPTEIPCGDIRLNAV
Just the number, please.

CN1C2CCC1C(C(=O)NCCCCCCCCNC(=O)C1C(c3ccc(Cl)cc3)CC3CCC1N3C)C(c1ccc(Cl)cc1)C2 (centres undefined)    12.5
CN1C2CCC1C(C(=O)NCCCCCCNC(=O)C1C(c3ccc(Cl)cc3)CC3CCC1N3C)C(c1ccc(Cl)cc1)C2 (centres undefined)    2.2
CN1C2CCC1C(C(=O)NCCCCNC(=O)C1C(c3ccc(Cl)cc3)CC3CCC1N3C)C(c1ccc(Cl)cc1)C2 (centres undefined)    0.06

For the next question, use this compound.
Q. Consider the compound CN1C2CCC1C(C(=O)NCCCNC(=O)C1C(c3ccc(Cl)cc3)CC3CCC1N3C)C(c1ccc(Cl)cc1)C2 (centres undefined) . State its measured Ratio.
A. 1.17

----------
TEST_SYSTEM: Sodium-dependent serotonin transporter (Homo sapiens, UniProt P31645)
PROTOCOL_TEXT: Compound was tested for inhibition of [125I]RTI-55 binding to Serotonin transporter in HEK cells
Sequence (P31645 whole entry): as the sequence (P31645 whole entry, looked up) above
Below, each entry is listed with its recorded Ki.
Expressed in nM, but write only the number.

Field: example entries. Status: answers known.
CN1C2CCC1C(C(=O)NCCCCNC(=O)C1C(c3ccc(Cl)cc3)CC3CCC1N3C)C(c1ccc(Cl)cc1)C2 (centres undefined)    3140
CN1C2CCC1C(C(=O)NCCCCCCCCNC(=O)C1C(c3ccc(Cl)cc3)CC3CCC1N3C)C(c1ccc(Cl)cc1)C2 (centres undefined)    7.9
CN1C2CCC1C(C(=O)NCCCNC(=O)C1C(c3ccc(Cl)cc3)CC3CCC1N3C)C(c1ccc(Cl)cc1)C2 (centres undefined)    357

Q. Return reported Ki for target or system Sodium-dependent serotonin transporter (Homo sapiens, UniProt P31645), item CN1C2CCC1C(C(=O)NCCCCCCNC(=O)C1C(c3ccc(Cl)cc3)CC3CCC1N3C)C(c1ccc(Cl)cc1)C2 (centres undefined) .
A. 102

----------
Listed here are compounds together with their documented Ratio.
TEST_SYSTEM: Sodium-dependent dopamine transporter (Homo sapiens)
PROTOCOL_TEXT: Ratio of uptake inhibition to binding affinity to human DAT (IC50/Ki)
# respond with the number and nothing more

CN1C2CCC1C(C(=O)NCCCCNC(=O)C1C(c3ccc(Cl)cc3)CC3CCC1N3C)C(c1ccc(Cl)cc1)C2 (centres undefined)    76.8
CN1C2CCC1C(C(=O)NCCCCCCCCNC(=O)C1C(c3ccc(Cl)cc3)CC3CCC1N3C)C(c1ccc(Cl)cc1)C2 (centres undefined)    130
CN1C2CCC1C(C(=O)NCCCNC(=O)C1C(c3ccc(Cl)cc3)CC3CCC1N3C)C(c1ccc(Cl)cc1)C2 (centres undefined)    0.8

Would you kindly look at the next entry?
Q. Identify Ratio associated with the compound CN1C2CCC1C(C(=O)NCCCCCCNC(=O)C1C(c3ccc(Cl)cc3)CC3CCC1N3C)C(c1ccc(Cl)cc1)C2 (centres undefined)
A. 76.3
